# tested on: ERα (Homo sapiens, UniProt P03372)
# Construct: endogenous in cells; host or cells: MCF-7
# Sequence (P03372 1-595): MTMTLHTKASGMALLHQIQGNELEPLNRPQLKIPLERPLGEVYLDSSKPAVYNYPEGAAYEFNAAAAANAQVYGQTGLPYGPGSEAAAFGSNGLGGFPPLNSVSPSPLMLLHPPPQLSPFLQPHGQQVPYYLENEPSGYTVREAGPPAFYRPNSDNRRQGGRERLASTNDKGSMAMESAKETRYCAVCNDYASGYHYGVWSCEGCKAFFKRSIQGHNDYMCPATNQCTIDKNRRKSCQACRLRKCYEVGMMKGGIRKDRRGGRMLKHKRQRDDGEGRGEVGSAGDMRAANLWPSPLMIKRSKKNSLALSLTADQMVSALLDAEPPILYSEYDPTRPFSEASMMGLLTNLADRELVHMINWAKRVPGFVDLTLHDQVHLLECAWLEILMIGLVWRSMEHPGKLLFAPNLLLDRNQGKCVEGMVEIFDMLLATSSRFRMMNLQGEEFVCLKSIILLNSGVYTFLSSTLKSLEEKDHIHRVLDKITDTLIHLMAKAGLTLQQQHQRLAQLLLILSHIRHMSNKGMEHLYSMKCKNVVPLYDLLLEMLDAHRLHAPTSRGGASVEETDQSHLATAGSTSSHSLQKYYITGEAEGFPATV
# measurement description: ER degradation in MCF-7 cells (Western blot)
# Format: cell-based
# recorded conditions: MCF7, Maximal ER degradation, read-out: Dmax
// reported Dmax per item

Query (compound): CC/C(=C(\c1ccc(B(O)O)cc1)c1ccc(N2CCN(C(=O)N3CCN(c4ccc5c(c4)CN([C@@H]4CCC(=O)NC4=O)C5=O)CC3)CC2)cc1)c1ccccc1 ; field requested: Dmax
> 90%

Query (compound): CC/C(=C(\c1ccc(B2OC(C)(C)C(C)(C)O2)cc1)c1ccc(N2CCC(CCN3CCN(c4ccc5c(c4)CN(C4CCC(=O)NC4=O)C5=O)CC3)CC2)cc1)c1ccccc1 (centres unmarked) ; field requested: Dmax
> 90%

Query (compound): CC/C(=C(\c1ccc(B(O)O)cc1)c1ccc(N2CCN(CCC3CCN(c4ccc5c(c4)CN(C4CCC(=O)NC4=O)C5=O)CC3)CC2)cc1)c1ccccc1 (centres unmarked) ; field requested: Dmax
> 90%

Query (compound): CC/C(=C(/c1ccc(B(O)O)cc1)c1ccc(N2CCN(CCN3CCN(c4ccc5c(c4)CN(C4CCC(=O)NC4=O)C5=O)CC3)CC2)cc1)c1ccccc1 (centres unmarked) ; field requested: Dmax
> 90%

Query (compound): CC/C(=C(\c1ccc(OCCN2CCN(CC3CCN(c4ccc5c(c4)CN([C@H]4CCC(=O)NC4=O)C5=O)CC3)CC2)cc1)c1ccc(B(O)O)cc1)c1ccccc1 ; field requested: Dmax
> 90%

Query (compound): CC/C(=C(/c1ccc(B(O)O)cc1)c1ccc(N2CCN(C(=O)N3CCN(c4ccc5c(c4)CN([C@@H]4CCC(=O)NC4=O)C5=O)CC3)CC2)cc1)c1ccccc1 ; field requested: Dmax
> 90%

Query (compound): CC/C(=C(\c1ccc(OCCN2CCN(c3ccc4c(c3)C(=O)N(C3CCC(=O)NC3=O)C4=O)CC2)cc1)c1ccc(B(O)O)cc1)c1ccccc1 (centres unmarked) ; field requested: Dmax
> 50%

Query (compound): CC/C(=C(\c1ccc(B(O)O)cc1)c1ccc(N2CCC(CNC3CCN(c4ccc5c(c4)C(=O)N(C4CCC(=O)NC4=O)C5=O)CC3)CC2)cc1)c1ccccc1 (centres unmarked) ; field requested: Dmax
> 90%

Query (compound): CC/C(=C(/c1ccc(OCCN2CCN(c3ccc4c(c3)C(=O)N(C3CCC(=O)NC3=O)C4=O)CC2)cc1)c1ccc(B(O)O)cc1)c1ccccc1 (centres unmarked) ; field requested: Dmax
> 50%

Query (compound): CC/C(=C(\c1ccc(O)cc1)c1ccc(OCCN2CCN(C(=O)N3CCC(N4CCN(c5ccc6c(c5)CN(C5CCC(=O)NC5=O)C6=O)CC4)CC3)CC2)cc1)c1ccccc1 (centres unmarked) ; field requested: Dmax
> 90%

Query (compound): CC/C(=C(/c1ccc(OCCN2CCN(CCN3CCN(c4ccc5c(c4)C(=O)N(C4CCC(=O)NC4=O)C5=O)CC3)CC2)cc1)c1ccc(B(O)O)cc1)c1ccccc1 (centres unmarked) ; field requested: Dmax
> 90%
